Listed next: entries and their corresponding Tm (melting temperature).
System: RNA oligonucleotide having the sequence of telomerase RNA (5′-UUGUCUAACCCUA-3′)
Test: Test for determining melting temperature (Tm) with telomerase RNA oligonucleotide
Type: binding, human
Details: 3.4 μM compound + 3.4 μM RNA oligonucleotide, 10 mM sodium phosphate buffer (pH 7.2), absorbance at 260 nm, 20° C. to 95° C.
Use °C as the unit, but write only the number.

{"substance": "HO-T^e2s-A^e2s-G^e2s-G^e2s-G^e2s-T^e2s-T^e2s-A^e2s-G^e2s-C^e2s-A^e2s-A^e2s-CH2CH2OH [Example 1]", "assay system": "RNA oligonucleotide having the sequence of telomerase RNA (5′-UUGUCUAACCCUA-3′)", "measured endpoint": "Tm (melting temperature)", "recorded value": 85}

For HO-T^e2s-A^e2s-G^e2s-G^e2s-G^e2s-T^e2s-T^e2s-A^e2s-G^e2s-A^e2s-CH2CH2OH [Example 3] on RNA oligonucleotide having the sequence of telomerase RNA (5′-UUGUCUAACCCUA-3′), measured Tm (melting temperature) was 74

For HO-T^e2s-A^e2s-G^e2s-G^e2s-G^e2s-T^e2s-T^e2s-CH2CH2OH [Example 5] on RNA oligonucleotide having the sequence of telomerase RNA (5′-UUGUCUAACCCUA-3′), measured Tm (melting temperature) was 52

For HO-T^e2s-A^e2s-G^e2s-G^e2s-G^e2s-T^e2s-T^e2s-A^e2s-G^e2s-A^e2s-C^e2s-A^e2s-CH2CH2OH [Example 2] on RNA oligonucleotide having the sequence of telomerase RNA (5′-UUGUCUAACCCUA-3′), measured Tm (melting temperature) was 87

For HO-T^e2s-A^e2s-G^e2s-G^e2s-G^e2s-T^e2s-T^e2s-A^e2s-G^e2s-CH2CH2OH [Example 6] on RNA oligonucleotide having the sequence of telomerase RNA (5′-UUGUCUAACCCUA-3′), measured Tm (melting temperature) was 71

For HO-T^e2s-A^e2s-G^e2s-G^e2s-G^e2s-T^e2s-T^e2s-A^e2s-CH2CH2OH [Example 4] on RNA oligonucleotide having the sequence of telomerase RNA (5′-UUGUCUAACCCUA-3′), measured Tm (melting temperature) was 62
